system: EKVX NSCLC; assay: NCI-60 one-dose screen, 48 h; details: 10 µM unless noted
The panel holds about 83,000 compounds, 20% with a hit somewhere; the sample as a whole holds those more often. Calls of active or inactive are those of the source. Rule for the calls: active = growth percent below 10; inactive = the rest.
I would appreciate it if you answered using one of these outcomes: 1.0 = active, 0.0 = inactive

Look over these answered cases.
compound: O=S(=O)(c1ccc(N/N=C\c2ccccc2Cl)cc1)c1ccc(N/N=C/c2ccccc2Cl)cc1
qualitativeLabel: 0.0
--
compound: N#C/C(C(=O)c1ccccc1)=C1/C(=O)Nc2ccc(Br)cc21
qualitativeLabel: 0.0
--
compound: CN(C)CCOc1ccc(/C(=C(/CCCl)c2ccccc2)c2ccccc2)cc1
qualitativeLabel: 0.0
--
compound: COCc1nc2ccccc2[nH]1
qualitativeLabel: 0.0
--
compound: CC1Cc2c(Cl)ncnc2N(C)c2ccc(O)cc21 (stereo not given)
qualitativeLabel: 0.0

Problem: Recorded test call requested for CC(=O)O.CC(=O)O.O.[Fe]
Result: 0.0

Problem: Recorded test call requested for Cc1ccc(N)c(O)c1
Result: 0.0

Problem: Recorded test call requested for CC1(C)CC[C@]2(C(N)=O)CC[C@]3(C)C(=CC[C@@H]4[C@@]5(C)C/C(=C/c6cccnc6)C(=O)C(C)(C)[C@@H]5CC[C@]43C)[C@@H]2C1
Result: 1.0

Problem: Recorded test call requested for C#CCNC(=O)CC[C@@H](C)[C@H]1CC[C@H]2[C@@H]3CC[C@@H]4CC(=O)CC[C@]4(C)[C@H]3CC[C@]12C
Result: 1.0

Problem: Recorded test call requested for Cc1ccc(NCCN2CCCCC2)c2c(=O)c3ccccc3sc12
Result: 0.0

###

system: SK-MEL-2 melanoma; assay: NCI-60 one-dose screen, 48 h; conditions: 10 µM unless noted
Compounds without any hit were thinned out: in the full panel of roughly 83,000, 20% have a hit. The source made the active and inactive calls. How the source made its calls: active means growth percent below 10; inactive means the rest.
I would appreciate it if you answered using one of these outcomes: yes (1) for active, no (0) for inactive

Look over these answered cases.
compound: O=C1COCCN1c1ccc(NCc2cn(Cc3ccc(F)cc3)c3ccccc23)cc1
qualitativeLabel: no (0)
//
compound: CCCc1cc2cc(-n3nc(C)c4c3CC(C)(C)CC4=O)cc(NC3CCSCC3)c2c(=O)[nH]1
qualitativeLabel: no (0)

Problem: Recorded test call requested for COc1ccc(-c2nc3ccccn3c2/C=C/C(=O)c2cc(OC)c(OC)c(OC)c2)cc1OC
Result: yes (1)

Problem: Recorded test call requested for Nc1ccc(Cl)c([N+](=O)[O-])c1
Result: no (0)

Problem: Recorded test call requested for Nc1cc(N)c(N=Nc2ccc(S(=O)(=O)O)cc2)cc1N=Nc1ccc(-c2ccc(N=Nc3ccc(O)c(C(=O)O)c3)cc2)cc1
Result: no (0)

Problem: Recorded test call requested for COc1cc(NCc2ccccc2O)c2ncccc2c1
Result: no (0)

Problem: Recorded test call requested for COc1ccc2nc3c(cc2c1)C(=O)CC(C(F)(F)F)C3 (centres undefined)
Result: no (0)

Problem: Recorded test call requested for CC(C)c1ccc(/C=N/N=C(N)N)cc1
Result: no (0)

Problem: Recorded test call requested for O=C(Nc1ccc(F)cc1)c1ccccc1
Result: no (0)

Problem: Recorded test call requested for CCn1cc(-c2ccnc(NCCNS(=O)(=O)c3ccc(Br)cc3)c2)c(-c2cccc(OC)c2)n1
Result: no (0)
